Values from paper PMC12040169

# ASSAY METHOD TEXT: in vitro
# RUN PARAMETERS: human, hela cells, % viability
Listed molecules paired with reported viability at 28.5 h, 10 µM

[
  {
    "MOLECULE": "CCC(CO)Nc1nc(-c2ccc(O)cc2)cn2ccnc12 (centres unmarked)",
    "viability at 28.5 h, 10 µM [%]": 106
  },
  {
    "MOLECULE": "O=S(=O)(c1ccc(Cl)s1)N1CCN(Cc2ccc3c(c2)OCO3)CC1",
    "viability at 28.5 h, 10 µM [%]": 89.5
  },
  {
    "MOLECULE": "COc1ccccc1Cc1cccc(C2CCCN2C(=O)CCc2ccccc2)n1 (centres unmarked)",
    "viability at 28.5 h, 10 µM [%]": 108
  },
  {
    "MOLECULE": "CN1C(=O)C2(CC(=O)N(CCC3CCCCC3)C2=O)c2ccccc21 (centres unmarked)",
    "viability at 28.5 h, 10 µM [%]": 109
  },
  {
    "MOLECULE": "S=C(NCc1ccco1)Nc1nn(Cc2ccc(Cl)cc2Cl)cc1Cl",
    "viability at 28.5 h, 10 µM [%]": 80.7
  },
  {
    "MOLECULE": "COc1ccc2c(CC(=O)Nc3sccc3C(N)=O)coc2c1",
    "viability at 28.5 h, 10 µM [%]": 101
  },
  {
    "MOLECULE": "N#Cc1ccccc1Cn1cc(C(=O)COc2ccccc2)c2ccccc21",
    "viability at 28.5 h, 10 µM [%]": 90.5
  },
  {
    "MOLECULE": "O=C(CSc1nnc(-c2ccncc2)s1)Nc1ccc(Cl)cc1",
    "viability at 28.5 h, 10 µM [%]": 87.9
  },
  {
    "MOLECULE": "COc1ccc(CCNc2nc(-c3ccccn3)cs2)cc1OC",
    "viability at 28.5 h, 10 µM [%]": 100
  },
  {
    "MOLECULE": "CSc1nnc(N(C)S(=O)(=O)c2ccc(C)cc2)s1",
    "viability at 28.5 h, 10 µM [%]": 87.2
  },
  {
    "MOLECULE": "CC(NC(=O)c1ccccc1Br)c1nnc(SCc2ccc([N+](=O)[O-])cc2)n1C (centres unmarked)",
    "viability at 28.5 h, 10 µM [%]": 103
  },
  {
    "MOLECULE": "CC(C)CNc1nc(-c2cccc(N(C)C)c2)cnc1N",
    "viability at 28.5 h, 10 µM [%]": 97
  },
  {
    "MOLECULE": "Fc1ccc(C2CCc3n[nH]cc3C2)cc1 (centres unmarked) [CBK015957C]",
    "viability at 28.5 h, 10 µM [%]": 92
  },
  {
    "MOLECULE": "COc1ccc(C(CC(=O)O)C(=O)O)cc1OC (centres unmarked)",
    "viability at 28.5 h, 10 µM [%]": 90.4
  },
  {
    "MOLECULE": "COCCC(=O)NC(Cc1ccsc1)c1nc(C)c(C)s1 (centres unmarked)",
    "viability at 28.5 h, 10 µM [%]": 84.7
  },
  {
    "MOLECULE": "CCCNC(=O)Cn1c(=O)n(Cc2cccs2)c2ncccc21",
    "viability at 28.5 h, 10 µM [%]": 101
  },
  {
    "MOLECULE": "COc1ccc(/C=N/NC(=O)c2ccc(O)cc2O)cc1COc1cc(C)c(Cl)c(C)c1",
    "viability at 28.5 h, 10 µM [%]": 90.3
  },
  {
    "MOLECULE": "CCc1ccc(/C=C2/SC(=S)N(CCC(=O)O)C2=O)cc1",
    "viability at 28.5 h, 10 µM [%]": 120
  },
  {
    "MOLECULE": "O=C(CCCOc1ccccc1)Nc1ccc([N+](=O)[O-])cc1",
    "viability at 28.5 h, 10 µM [%]": 97.9
  },
  {
    "MOLECULE": "O=C1NC(N2CCCC2)=NOc2nnc(Cl)cc21",
    "viability at 28.5 h, 10 µM [%]": 109
  }
]
